assay: Metabolic stability in human liver microsomes assessed as time course of compound elimination at 1 uM by HPLC
Type: ADME, Microsome
settings: read-out: Ke (converted)
Recorded measurements of k el at 1 µM, one per entry
Give just the number in s⁻¹; leave the unit off.

# compound_structure_string, k el at 1 µM, s⁻¹
records = [
    ("Oc1ccc2c3c1O[C@H]1c4c(c5cc(OC(F)(F)F)cc6c5n4CCC6)C[C@@]4(O)[C@@H](C2)N(CC2CC2)CC[C@]314", 0.000152),
    ("CC1(C)CCn2c3c(c4cccc1c42)C[C@@]1(O)[C@H]2Cc4ccc(O)c5c4[C@@]1(CCN2CC1CC1)[C@H]3O5", 0.00126),
    ("Oc1ccc2c3c1O[C@H]1c4c(c5cc(Br)cc6c5n4CCC6)C[C@@]4(O)[C@@H](C2)N(CC2CC2)CC[C@]314", 0.000252),
]

Moving on to another compound below.
Consider the compound shown here: Oc1ccc2c3c1O[C@H]1c4c(c5c(C(F)(F)F)ccc6c5n4CCC6)C[C@@]4(O)[C@@H](C2)N(CC2CC2)CC[C@]314 What is its recorded k el at 1 µM?
0.000278

----------
Tested on: Rattus norvegicus
assay: Antitussive activity in ip dosed Sprague-Dawley rat assessed as reduction of capsaicin-induced coughing for 3 mins administered 30 mins before capsaicin challenge relative to control
Type: functional
Here, each record is paired with measured ED50 data.
Reply numerically in mg/kg, unit not repeated.

A selection of reference data follows.
# molecule, unit_abbrev, observed_measurement
records = [
    ("Oc1ccc2c3c1O[C@H]1c4[nH]c5ccccc5c4C[C@@]4(O)[C@@H](C2)N(CC2CC2)CC[C@]314 [NALTRINDOLE]", "mg/kg", 0.104),
    ("COc1ccc2c3c1O[C@H]1c4c(c5cc(F)cc6c5n4CCC6)C[C@@]4(O)C(C2)N(CC2CC2)CC[C@]314", "mg/kg", 0.00473),
    ("COc1ccc2c3c1O[C@H]1c4c(c5cccc6c5n4CCC6)C[C@@]4(O)[C@@H](C2)N(CC2CC2)CC[C@]314.CS(=O)(=O)O", "mg/kg", 0.00207),
]

Value lookup for ED50; key = Oc1ccc2c3c1O[C@H]1c4c(c5cc(Cl)cc6c5n4CCC6)C[C@@]4(O)[C@@H](C2)N(CC2CC2)CC[C@]314
0.0784

----------
System: Rattus norvegicus
assay: Antitussive activity in sc dosed Sprague-Dawley rat assessed as reduction of capsaicin-induced coughing for 3 mins administered 30 mins before capsaicin challenge relative to control
Type: functional
observable: log10 ED50 (log10 of the value in mg/kg)
Hi team, quick reminder: these entries are log10 of ED50 (mg/kg).

Consider the reported log10 ED50 for these compounds:
# compound_structure_string, observed_measurement
records = [
    ("COc1ccc2c3c1c1c(n3CCC2)[C@@H]2Oc3c(O)ccc4c3[C@@]23CCN(CC2CC2)[C@H](C4)[C@]3(O)C1", -2.06),
    ("Oc1ccc2c3c1O[C@H]1c4c(c5c(C(F)(F)F)ccc6c5n4CCC6)C[C@@]4(O)[C@@H](C2)N(CC2CC2)CC[C@]314", -3.45),
    ("Oc1ccc2c3c1O[C@H]1c4c(c5c(Br)ccc6c5n4CCC6)C[C@@]4(O)[C@@H](C2)N(CC2CC2)CC[C@]314", -1.02),
    ("Oc1ccc2c3c1O[C@H]1c4c(c5cccc6c5n4CCO6)C[C@@]4(O)[C@@H](C2)N(CC2CC2)CC[C@]314", -1.85),
    ("Oc1ccc2c3c1O[C@H]1c4c(c5cc(F)cc6c5n4CCC6)C[C@@]4(O)[C@@H](C2)N(CC2CC2)CC[C@]314", -2.77),
    ("COc1cc2c3c(c1)c1c(n3CCC2)[C@@H]2Oc3c(O)ccc4c3[C@@]23CCN(CC2CC2)[C@H](C4)[C@]3(O)C1", -2.70),
    ("COc1ccc2c3c(n4c2c1CCC4)[C@@H]1Oc2c(O)ccc4c2[C@@]12CCN(CC1CC1)[C@H](C4)[C@]2(O)C3", -1.27),
    ("Oc1ccc2c3c1O[C@H]1c4c(c5cccc6c5n4CCC6)C[C@@]4(O)[C@@H](C2)N(CC2CC2)CC[C@]314", -3.70),
]

Test system Rattus norvegicus; read-out log10 ED50; what value for Oc1ccc2c3c1O[C@H]1c4c(c5cc(Br)cc6c5n4CCC6)C[C@@]4(O)[C@@H](C2)N(CC2CC2)CC[C@]314 ?
-2.30

// next record Oc1ccc2c3c1O[C@H]1c4c(c5c(Cl)ccc6c5n4CCC6)C[C@@]4(O)[C@@H](C2)N(CC2CC2)CC[C@]314
-2.46

Now this one: Oc1ccc2c3c1O[C@H]1c4c(c5ccc(Cl)c6c5n4CCC6)C[C@@]4(O)[C@@H](C2)N(CC2CC2)CC[C@]314
-1.86

Record: Oc1ccc2c3c1O[C@H]1c4c(c5ccc(Br)c6c5n4CCC6)C[C@@]4(O)[C@@H](C2)N(CC2CC2)CC[C@]314
-1.56

COc1ccc2c3c1O[C@H]1c4c(c5cccc6c5n4CCC6(C)C)C[C@@]4(O)[C@@H](C2)N(CC2CC2)CC[C@]314 , same question.
-1.89
